Source of measurements: patent US10336697B2

Entries annotated with measured IC50
System: Bet BRD4 full length bromo-domain protein (Homo sapiens, UniProt O60885)
Experiment: Bet bromodomain TR-FRET assay (displacement of acetyl histone peptide)
Assay type: binding
Measurement Conditions: Bet BRD4 full length bromodomain protein, 300 nM acetyl histone peptide substrate, read-out: IC50

Observe how each entry below is paired with its result.
[[record]]
compound = "CN1CCN(C(=O)c2cc(NS(=O)(=O)c3ccc(F)cc3F)cc3c2NC(=O)C32CCC2)CC1"
quantity_kind = "IC50"
value = "> 1 µM"

[[record]]
compound = "O=C1Nc2c(Oc3cc[nH]c(=O)c3)cc(NS(=O)(=O)c3ccc(Cl)cc3F)cc2C12CCC2"
quantity_kind = "IC50"
value = "< 0.6 µM"

[[record]]
compound = "CC(=O)Nc1cc(NS(=O)(=O)c2ccc(F)cc2F)cc2c1NC(=O)C21CCC1"
quantity_kind = "IC50"
value = "0.6 to 1 µM"


Value lookup for IC50; key = COc1ccccc1S(=O)(=O)Nc1cc(NC2CCN(C)CC2)c2c(c1)C1(CCC1)C(=O)N2
< 0.6 µM

Value lookup for IC50; key = COc1ccccc1S(=O)(=O)Nc1cc(OCCNC2CC2)c2c(c1)C1(CCC1)C(=O)N2
< 0.6 µM

Value lookup for IC50; key = COc1ccccc1S(=O)(=O)Nc1cc(OC2CCN(C)CC2F)c2c(c1)C1(CCC1)C(=O)N2 (single isomer, unassigned)
< 0.6 µM

Value lookup for IC50; key = COc1cccc(OC)c1S(=O)(=O)Nc1cc(OC2CCN(C)CC2)c2c(c1)C1(CCC1)C(=O)N2
> 1 µM
